# Tested on: SARS-CoV-2-NLuc in A549-hACE2 cells
# assay summary: microbe, parasite or virus in culture
# Type: cell-based
# run conditions: Severe acute respiratory syndrome coronavirus 2, 48 h; read-out: MPro EC50
pEC50: −log10 of the molar value.
Each entry below lists one item and its recorded pEC50 value.
endpoint label: pEC50

{"molecule": "Cc1noc(C)c1-c1cc2[nH]c(=O)n([C@H]3CCNC(=O)C3)c(=O)c2s1", "endpoint label": "pEC50", "endpoint result": 4.45}
{"molecule": "O=C1C[C@H](n2c(=O)[nH]c3cc(-c4ccccc4Cl)sc3c2=O)CN1", "endpoint label": "pEC50", "endpoint result": 4.45}
{"molecule": "Cc1cc(-c2cccc(Cl)c2-c2cc3[nH]c(=O)n(C4CCNC(=O)C4)c(=O)c3s2)cnn1 (centres unmarked)", "endpoint label": "pEC50", "endpoint result": 5.26}
{"molecule": "O=C1CC(n2c(=O)[nH]c3cc(-c4c(Cl)cccc4-c4ccc5c(c4)OC(F)(F)O5)sc3c2=O)CCN1 (centres unmarked)", "endpoint label": "pEC50", "endpoint result": 6.81}
{"molecule": "N#CCCn1c(=O)n([C@@H]2CCCNC(=O)C2)c(=O)c2sc(-c3ccccc3Cl)cc21", "endpoint label": "pEC50", "endpoint result": 7.01}
{"molecule": "O=C1C[C@@H](n2c(=O)[nH]c3cc(-c4ccccc4Cl)sc3c2=O)CCN1", "endpoint label": "pEC50", "endpoint result": 7.03}
{"molecule": "COc1ccc(C#N)c(-c2cc3[nH]c(=O)n(C4CCCNC(=O)C4)c(=O)c3s2)c1 (centres unmarked)", "endpoint label": "pEC50", "endpoint result": 6.36}
{"molecule": "COc1cc(-c2cc3[nH]c(=O)n(C4CCCCNC(=O)C4)c(=O)c3s2)c(Cl)cc1F (centres unmarked)", "endpoint label": "pEC50", "endpoint result": 6.14}
